- Protocol notes: Mouse PK evaluation, plasma, IV
- Applied conditions: CD-1, mouse, plasma, intravenous, 3 mg/kg, Plasma concentration, Mouse 1, 3 mg/kg IV, CD-1 mice, 1 h
Result type: concentration at 1 h (ng/mL)
# output: bare number, implied unit ng/mL

Data request: concentration at 1 h lookup needed for CN(C)CCCn1c(N)nc2ccc3c(c21)CC(CO)O3 (stereo not shown) , thanks.
Data returned: 145

----------
- Protocol notes: Mouse PK evaluation, plasma, IV
- Applied conditions: CD-1, mouse, plasma, intravenous, 3 mg/kg, Plasma concentration, Mouse 3, 3 mg/kg IV, CD-1 mice, 0.25 h
Result type: concentration at 0.25 h
Please state the number and follow it with the unit.

Data request: // query concentration at 0.25 h value for entry CN(C)CCCn1c(N)nc2ccc3c(c21)CC(CO)O3 (stereo not shown)
Data returned: 377 ng/mL
